Listed here are compounds together with their documented IC50.
# tested-system: Phosphatidylinositol 4,5-bisphosphate 3-kinase catalytic subunit gamma isoform (Homo sapiens)
Kindly provide the numeric value in µM only, without the unit symbol.

Below are worked cases with known answers.
{"compound": "Cc1cc(-c2ccn3nc(N)c(-c4nc[nH]n4)c3n2)cc2c1C(=O)N([C@@H](C)C1CC1)C2", "observation-type": "IC50", "recorded-measurement": 0.031}
{"compound": "Cc1cc(-c2ccn3nc(N)c(-c4cnn(CCO)c4)c3n2)cc2c1C(=O)N([C@@H](C)C1CC1)C2", "observation-type": "IC50", "recorded-measurement": 0.0064}
{"compound": "CC(=O)Nc1cc2nc(-c3cc(C)c4c(c3)CN([C@@H](C)C3CC3)C4=O)ccn2n1", "observation-type": "IC50", "recorded-measurement": 0.0044}

Here is the next item to consider.
Recorded IC50 of CC(=O)Nc1nc2ccc(-c3cc(C)c4c(c3)CN([C@@H](C)C3CC3)C4=O)cn2n1 (racemic) , please.
0.076

====

# tested-system: Phosphatidylinositol 4,5-bisphosphate 3-kinase catalytic subunit gamma isoform (Homo sapiens, UniProt P48736)
# Sequence (P48736 whole entry, canonical isoform): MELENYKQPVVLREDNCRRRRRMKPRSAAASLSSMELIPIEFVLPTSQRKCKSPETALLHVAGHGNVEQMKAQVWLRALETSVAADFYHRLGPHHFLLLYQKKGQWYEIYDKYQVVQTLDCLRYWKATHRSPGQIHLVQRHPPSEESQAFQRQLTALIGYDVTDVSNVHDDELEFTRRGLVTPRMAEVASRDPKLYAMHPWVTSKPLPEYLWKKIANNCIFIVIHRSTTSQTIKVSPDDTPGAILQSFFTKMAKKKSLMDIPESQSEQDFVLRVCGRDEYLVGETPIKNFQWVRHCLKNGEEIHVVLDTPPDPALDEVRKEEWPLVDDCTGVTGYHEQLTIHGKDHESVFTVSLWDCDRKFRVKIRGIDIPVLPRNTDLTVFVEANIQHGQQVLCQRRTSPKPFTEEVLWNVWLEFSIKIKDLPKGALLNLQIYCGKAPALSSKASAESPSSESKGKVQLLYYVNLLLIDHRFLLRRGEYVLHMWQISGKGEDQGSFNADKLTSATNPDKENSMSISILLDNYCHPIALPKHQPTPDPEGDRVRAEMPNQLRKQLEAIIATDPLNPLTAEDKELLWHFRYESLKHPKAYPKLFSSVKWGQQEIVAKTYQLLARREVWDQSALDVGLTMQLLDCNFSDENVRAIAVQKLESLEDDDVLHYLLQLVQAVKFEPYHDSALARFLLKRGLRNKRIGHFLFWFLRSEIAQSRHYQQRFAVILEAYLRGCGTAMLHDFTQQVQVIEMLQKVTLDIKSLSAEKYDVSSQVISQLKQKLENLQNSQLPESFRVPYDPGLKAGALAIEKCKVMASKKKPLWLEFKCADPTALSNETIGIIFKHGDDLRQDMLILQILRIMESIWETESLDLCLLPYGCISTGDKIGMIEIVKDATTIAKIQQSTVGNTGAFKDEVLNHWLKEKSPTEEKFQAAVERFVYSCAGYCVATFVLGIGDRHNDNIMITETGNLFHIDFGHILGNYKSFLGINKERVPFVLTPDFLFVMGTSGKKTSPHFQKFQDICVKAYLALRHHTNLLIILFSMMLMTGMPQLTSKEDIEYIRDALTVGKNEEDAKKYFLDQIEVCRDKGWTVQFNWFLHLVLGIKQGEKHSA
observation-type: pIC50
FYI, pIC50 means -log10 of a concentration in mol per litre.

Below are worked cases with known answers.
{"molecule": "CCC(=O)Nc1cn2nc(-c3cc(C)c4c(c3)CN([C@@H](C)C3CC3)C4=O)ccc2n1", "recorded-measurement": 8.14}
{"molecule": "Cc1cc(-c2ccc3nc(N)nn3c2)cc2c1C(=O)N([C@@H](C)C1CC1)C2 (racemic)", "recorded-measurement": 6.54}
{"molecule": "Cc1cc(-c2ccn3nc(N)c(-c4ccccn4)c3n2)cc2c1C(=O)N([C@@H](C)C1CC1)C2", "recorded-measurement": 7.19}
{"molecule": "COCC(=O)Nc1cn2nc(-c3cc(C)c4c(c3)CN([C@@H](C)C3CC3)C4=O)ccc2n1", "recorded-measurement": 7.85}
{"molecule": "Cc1nn(C)cc1-c1c(N)nn2ccc(-c3cc4c(c(C(F)(F)F)c3)C(=O)N([C@@H](C)C3CC3)C4)nc12", "recorded-measurement": 8.10}
{"molecule": "CNS(=O)(=O)c1cc(-c2ccn3nc(NC(C)=O)cc3n2)cc2c1C(=O)N([C@@H](C)C1CC1)C2", "recorded-measurement": 8.57}
{"molecule": "CC(=O)Nc1cc2nc(-c3cc4c(c(NS(C)(=O)=O)c3)C(=O)N([C@@H](C)C3CC3)C4)ccn2n1", "recorded-measurement": 8.89}

Here is the next item to consider.
Recorded pIC50 of CC(=O)Nc1cn2nc(-c3cc(C)c4c(c3)CN([C@@H](C)C3CC3)C4=O)ccc2n1 , please.
8.26

====

# tested-system: Phosphatidylinositol 4,5-bisphosphate 3-kinase catalytic subunit gamma isoform (Homo sapiens, UniProt P48736)
observation-type: pIC50
FYI, pIC50 means -log10 of a concentration in mol per litre.

{"compound": "Cc1cc(-c2ccn3nc(N)c(-c4ccccn4)c3n2)cc2c1C(=O)N([C@@H](C)C1CC1)C2", "recorded-measurement": 5.64}
{"compound": "Cc1cc(-c2ccc3ncc(-c4cnn(C)c4)n3n2)cc2c1C(=O)N([C@@H](C)C1CC1)C2", "recorded-measurement": 6.36}
{"compound": "Cc1cc(-c2ccc3nc(N)cn3n2)cc2c1C(=O)N([C@@H](C)C1CC1)C2 (racemic)", "recorded-measurement": 5.82}

Here is the next item to consider.
Recorded pIC50 of Cc1cc(-c2c(N)nn3ccc(-c4cc(C)c5c(c4)CN([C@@H](C)C4CC4)C5=O)nc23)ccc1C(=O)O , please.
6.68

Reference source: ChEMBL document CHEMBL4665778
